Sourced from patent US20140107021A1

ASSAY_SYSTEM: GLP-1 receptor (Homo sapiens)
Construct: expressed in transfected cells; host or cells: HEK293
RUN_DESCRIPTION: cAMP induction at the GLP-1 receptor (agonist activity), firefly luciferase reporter assay in HEK293 cells
Assay type: cell-based
PROTOCOL_CONDITIONS: Table 5; relative to standard
Bridge positions count the residues as written; N and C are the ends. Square brackets hold non-standard residues; d marks the D form. Side chains are listed from the residue outwards. Ends that are not written are not given here. PEG40kDa = 40 kDa polyethylene glycol; Ac‑Cys = acetylated cysteine; Aib = CC(C)(N)C(=O)O
ENDPOINT_NAME: GLP-1R relative activity (%)
Write it as a number; the unit % goes unstated.

mt-225: as mt-217 but modified Lys at position 40 and Asn at position 24; SEQ ID NO: 359 (Y[Aib]QGTFTSDYSIYLDEQAAKEFVNWLLAGGPSSGAPPPSK([Ala-Ac‑Cys-PEG40kDa])-NH2; lactam 16-20): 29.59
mt-227: as mt-219 but modified Lys at position 40 and Asn at position 24; SEQ ID NO: 360 (Y[Aib]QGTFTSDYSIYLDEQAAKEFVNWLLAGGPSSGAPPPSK([Arg-Ac‑Cys-PEG40kDa])-NH2; lactam 16-20): 36.25
mt-219: as mt-217 with Arg as the amino acid spacer; SEQ ID NO: 21 (Y[Aib]QGTFTSDYSIYLDEQAAKEFVK([Arg-Ac‑Cys-PEG40kDa])FLLAGGPSSGAPPPS-NH2; lactam 16-20): 16.56

Shift focus to the following entry.
// query For the substance shown here, mt-218: as mt-217 with Glu as the amino acid spacer; SEQ ID NO: 20 (Y[Aib]QGTFTSDYSIYLDEQAAKEFVK([Glu-Ac‑Cys-PEG40kDa])FLLAGGPSSGAPPPS-NH2; lactam 16-20) , give the reported GLP-1R relative activity.
// result 7.40

====

Here, each record is paired with measured % Relative Activity GLP-1R data.
ASSAY_SYSTEM: GLP-1 receptor (Homo sapiens, UniProt P43220)
Construct: expressed in transfected cells; host or cells: HEK293
Sequence (P43220 24-463): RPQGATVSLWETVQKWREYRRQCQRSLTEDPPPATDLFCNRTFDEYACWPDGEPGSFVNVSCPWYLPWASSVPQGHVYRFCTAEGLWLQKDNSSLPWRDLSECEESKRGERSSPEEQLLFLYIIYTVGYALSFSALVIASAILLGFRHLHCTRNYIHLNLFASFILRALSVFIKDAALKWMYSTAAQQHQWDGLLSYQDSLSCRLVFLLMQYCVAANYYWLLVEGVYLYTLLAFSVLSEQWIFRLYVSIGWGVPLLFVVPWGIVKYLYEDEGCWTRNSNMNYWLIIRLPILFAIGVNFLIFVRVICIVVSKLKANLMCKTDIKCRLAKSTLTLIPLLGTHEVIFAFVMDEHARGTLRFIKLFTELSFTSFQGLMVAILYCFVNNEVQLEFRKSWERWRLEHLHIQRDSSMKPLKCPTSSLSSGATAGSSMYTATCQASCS
RUN_DESCRIPTION: cAMP induction at the GLP-1 receptor (agonist activity), firefly luciferase reporter assay in HEK293 cells
Type: cell-based
PROTOCOL_CONDITIONS: Table 9
Square brackets hold non-standard residues; d marks the D form. Ends that are not written are not given here. * marks the point of attachment. PEG 40 kDa = PEG of 40 kDa covalently attached to Cys; C16 acyl = 16 carbon fatty acyl group; Myristoyl = CCCCCCCCCCCCCC(=O)*; Aib = CC(C)(N)C(=O)O
Write it as a number; the unit % goes unstated.

// query For the substance shown here, E3C24-PEG-K10-C14 (Y[Aib]EGTFTSDK(Myristoyl)SIYLDKQAA[Aib]EFVC(PEG 40 kDa)WLLAGGPSSGAPPPS-NH2) [MT-341] , give the reported % Relative Activity GLP-1R.
// result 14.6

// query For the substance shown here, E3C24-PEG-K40-C14 (Y[Aib]EGTFTSDYSIYLDKQAA[Aib]EFVC(PEG 40 kDa)WLLAGGPSSGAPPPSK(Myristoyl)-NH2) [MT-353] , give the reported % Relative Activity GLP-1R.
// result 128.6

// query For the substance shown here, K40-C16 (Y[Aib]QGTFTSDYSIYLDKQAA[Aib]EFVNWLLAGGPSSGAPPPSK(C16 acyl)-NH2) [MT-278] , give the reported % Relative Activity GLP-1R.
// result 459.5

// query For the substance shown here, E3K16AIB2,20K10(C16) (Y[Aib]EGTFTSDK(C16 acyl)SIYLDKQAA[Aib]EFVNWLLAGGPSSGAPPPS-NH2) [MT-270] , give the reported % Relative Activity GLP-1R.
// result 211.8
